Listing of entries alongside the reported Plate 1 (% inhibition).
molecular target: His6-AspH315–758 (human aspartate/asparagine-β-hydroxylase, AspH) (Homo sapiens); construct: N-Terminally His6-tagged human AspH315–758 (His6-AspH315–758) was produced in E. coli BL21 (DE3) cells; made in house; host or cells: E. coli BL21 (DE3), pET-28a(+) vector; assay: SPE-MS AspH inhibition assay (LOPAC screen at fixed 20 μM and IC50 dose-response), hydroxylation of cyclic peptide hFX-CP101–119; format: biochemical; details: LOPAC compound at fixed 20 uM; plate 1, normalised to DMSO and 2,4-PDCA controls
Sequence (Q12797 315-758): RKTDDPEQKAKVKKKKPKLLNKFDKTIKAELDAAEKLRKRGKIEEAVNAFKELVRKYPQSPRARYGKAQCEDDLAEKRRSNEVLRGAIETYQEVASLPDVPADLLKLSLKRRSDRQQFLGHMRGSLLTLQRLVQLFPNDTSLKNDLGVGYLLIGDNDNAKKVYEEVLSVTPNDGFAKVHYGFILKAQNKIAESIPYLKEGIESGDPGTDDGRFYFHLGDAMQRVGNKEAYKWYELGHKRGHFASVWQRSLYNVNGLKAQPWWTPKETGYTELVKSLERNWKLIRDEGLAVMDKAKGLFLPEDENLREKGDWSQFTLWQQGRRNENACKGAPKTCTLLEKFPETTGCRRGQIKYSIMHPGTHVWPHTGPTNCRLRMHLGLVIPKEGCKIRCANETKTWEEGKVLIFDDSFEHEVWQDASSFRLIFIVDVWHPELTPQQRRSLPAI
Where a name gives a salt, the structure may show the parent alone.
Provide only the numeric value, understood in %.

# molecule, quantitative_readout
measured = [
    ("O=[N+]([O-])c1cccc2c(Br)n[nH]c12", 1.81),
    ("C[N+](C)(C)CC(=O)O [Betaine hydrochloride]", -4.44),
    ("COc1ccc2c(c1)c(CC(=O)O)c(C)n2Cc1ccc(Cl)cc1", 5.27),
    ("CC(=O)C(C)=NO", -3.18),
]

Now look at this entry.
For the molecule COC(=O)C(N)Cc1ccc(Cl)cc1.Cl (racemic) , what Plate 1 (% inhibition) is on record?
1.48

----------
biological target: His6-AspH315–758 (human aspartate/asparagine-β-hydroxylase, AspH) (Homo sapiens); construct: N-Terminally His6-tagged human AspH315–758 (His6-AspH315–758) was produced in E. coli BL21 (DE3) cells; made in house; host or cells: E. coli BL21 (DE3), pET-28a(+) vector; experiment: SPE-MS AspH inhibition assay (LOPAC screen at fixed 20 μM and IC50 dose-response), hydroxylation of cyclic peptide hFX-CP101–119; type: biochemical; settings: LOPAC Plate 4, compound at 20 uM; read-out: % inhibition
Counter-ions that a name gives are not always drawn.
Listing of entries alongside the reported inhibition at 20 µM.
Provide only the numeric value, understood in %.

Solved entries:
# molecule, inhibition at 20 µM, %
records = [
    ("NCCCCN [Putrescine dihydrochloride]", -10),
    ("NC[C@@H]1O[C@H](O[C@H]2[C@@H](O)[C@H](O[C@@H]3[C@@H](O)[C@H](N)C[C@H](N)[C@H]3O[C@H]3O[C@H](CO)[C@@H](O)[C@H](O)[C@H]3N)O[C@@H]2CO)[C@H](N)[C@@H](O)[C@@H]1O [Paromomycin sulfate]", -2.28),
]

For the molecule CC(=O)S[C@@H]1CC2=CC(=O)CC[C@]2(C)[C@H]2CC[C@@]3(C)[C@@H](CC[C@@]34CCC(=O)O4)[C@H]12 , what inhibition at 20 µM is on record?
-15.7

Now try COc1cc2ncnc(Nc3cccc(Cl)c3)c2cc1OC .
-7.04

Now try c1ccc2c(c1)CCCC2C1=NCCN1 (stereo not shown) [Tetrahydrozoline hydrochloride] .
-10.3

Now try COc1ccc(C2(O)OC(=O)C(c3ccc4c(c3)OCO4)=C2Cc2cc(OC)c(OC)c(OC)c2)cc1 (stereo not shown) .
0.95

Now try CCCOc1ccccc1-c1nc2nn[nH]c2c(=O)[nH]1 .
2.99

Now try CC/C(=C(\c1ccccc1)c1ccc(OCCN(C)C)cc1)c1ccccc1 [Tamoxifen citrate] .
72.5

Now try CCN[C@H]1CN(CCCOC)S(=O)(=O)c2sc(S(N)(=O)=O)cc21 [Brinzolamide] .
-6.32

Now try Nc1nc2ccc(OC(F)(F)F)cc2s1 .
-5.09

Now try CN(C)CCC(c1ccccc1)c1ccccn1 (stereo not shown) [Pheniramine maleate] .
-2.28

Now try CCN1CCCC1CNC(=O)c1cc(S(=O)(=O)CC)c(N)cc1OC (stereo not shown) [Amisulpride] .
-13.2

Now try CNC(=C[N+](=O)[O-])NCCSCc1ccc(CN(C)C)o1 [Ranitidine hydrochloride] .
-2.13

Now try CC(C)(C)NCC(O)c1ccccc1Cl (stereo not shown) [Tulobuterol hydrochloride] .
-13.8

Now try C[C@@H]1C(=O)NC2=Nc3cccc(Cl)c3CN21 .
-10.9

Now try CCCCC1C(=O)N(c2ccccc2)N(c2ccccc2)C1=O .
-3.41

Now try CN(C)S(=O)(=O)c1ccc2c(c1)/C(=C/c1cc3c([nH]1)CCCC3)C(=O)N2 .
15.6

Now try OC(CCN1CCCCC1)(c1ccccc1)C1CCCCC1 (stereo not shown) [Trihexyphenidyl hydrochloride] .
-9.65

Now try O=C(O)c1cccnc1C(=O)O .
83.6
